# target.or.system: Histamine N-methyltransferase (Cavia porcellus)
# protocol.description: Inhibition of guinea pig HMT at 2 mM by radiochemical technique
measure: inhibition (%)

Nc1ncnc2c1ncn2[C@@H](CO)O[C@@H](CO)CSC[C@@H](N)C(=O)O ... 3
Nc1ncnc2c1nnn2[C@@H](CO)O[C@@H](CO)CSCC[C@@H](N)C(=O)O ... 0
Nc1nnnc2c1ncn2[C@@H](CO)O[C@@H](CO)CSCC[C@@H](N)C(=O)O ... 0
Nc1ncnc2c1ncn2[C@@H](CO)O[C@@H](CO)CSCC[C@H](N)C(=O)O ... 0

I. Nc1ncnc2c1ncn2[C@@H](CO)O[C@@H](CO)C[S+]([O-])CC[C@@H](N)C(=O)O (some centres not stated)
II. Nc1ncnc2c1ncn2[C@@H](CO)O[C@@H](CO)CSCC[C@@H](N)C(=O)O
III. Nc1ncnc2c1ncn2[C@@H]1O[C@H](C[S+]([O-])CC[C@@H](N)C(=O)O)[C@@H](O)[C@H]1O (some centres not stated)
Input line: Let's sort these by inhibition, smallest first. Go ahead? Answer by listing the labels in the order asked for.
Output line: I, III, II
